Where do the numbers come from? From the nanobody polyreactivity screen of Harvey et al. (2022).

assay: yeast display, Sf9 membrane polyspecificity reagent, FACS + sequencing; frameworks hold sequencing errors
measured.metric: polyreactivity (PSR sort gate)

QVQLVESVGGLVQAGGSLRLSCAASGSNFYVNAMGWYRQAPGKERELVAAISRRGGSTYYADSVKGRFTISRDNAKNTVSLQMNSLKPEDTAVYYCNKAIRGQAPSGPEYYYWGHGTQVTVSS ... high polyreactivity
QLQLVESGGGLVQAGGSLRLSCAASGSTYATYTMGWYRQAPGKERELVAAISVSGSRTYYADSVKGRFTISRDNAKNTVYLQMNSLKPEDTAVYYCNADPPVKLYLYDYWGQGTQVTVSS ... high polyreactivity
QVQLVESGGGLVQAGGSLRLSCAASGITFYRNAMGWYRQAPGKERELVAAISRRGGITRYADSVKGRFTISRDNAKNTVYLQMNSLKPEDTAVYYCAKAIGSTALRRATEDYWGQGTQVTVSS ... high polyreactivity
